- target of assay: T1, Human polyclonal immunoglobulin G (IgG) (human)
- T1 construct: also called hIgG; IVIG
- method summary: affinity chromatography of Cohn fraction II+III of human plasma on peptide resin; binding PBS + 0.25M NaCl, elution acetate pH 5.0; yield by Protein G chromatography
*1 amine or outer side, *2 acyl side, *3 side chain or, on linkers, in order; H or OH if unused. Where no end group is shown, it is not given here. [ ]: non-standard residue; d: D form. Tyr(Me) = O-methyl-tyrosine, COc1ccc(C[C@H](N[*:1])C(=O)[*:2])cc1; Trp(1-Me) = Cn1cc(C[C@H](N)C(=O)O)c2ccccc21; Phe(4-Me) = Cc1ccc(C[C@H](N)C(=O)O)cc1; Lys(Me2) = CN(C)CCCC[C@H](N)C(=O)O; Cit = NC(=O)NCCC[C@H](N)C(=O)O
If the reported IgG yield equals or exceeds 80%, assign Criterion met. If not, assign Criterion not met.

>>> group("H[Phe(4-Me)][Cit][Cit]HL-{Toyopearl AF‑Amino‑650M resin} (Variant of HFRRHL on Toyopearl resin; also called HFMetCitCitHL-Toyopearl) [HFMetCitCitHL]")
"Criterion met"

Q: Kindly determine if IgG yield recorded for HYFKFD-{Toyopearl AF‑Amino‑650M resin} (Synthetic hexapeptide on Toyopearl resin; also called HYFKFD-Toyopearl) is above or exactly 80%.
A: Criterion not met

Q: Kindly determine if IgG yield recorded for HFRRHL-{Toyopearl AF‑Amino‑650M resin} (Synthetic hexapeptide on Toyopearl resin; also called HFRRHL-Toyopearl) is above or exactly 80%.
A: Criterion met

Q: Kindly determine if IgG yield recorded for H[Trp(1-Me)][Cit]G[Trp(1-Me)]V-{Toyopearl AF‑Amino‑650M resin} (Variant of HWRGWV on Toyopearl resin; also called HWMetCitGWMetV-Toyopearl) [HWMetCitGWMetV] is above or exactly 80%.
A: Criterion met

Q: Kindly determine if IgG yield recorded for HWRGWV-{Toyopearl AF‑Amino‑650M resin} (not fully specified, Synthetic hexapeptide made directly on Toyopearl AF-Amino-650M resin after a first Fmoc-Ala-OH coupling, about 0.12 meq/g; also called HWRGWV-Toyopearl; original peptide ligand) is above or exactly 80%.
A: Criterion met

Q: Kindly determine if IgG yield recorded for H[Tyr(Me)][Phe(4-Me)][Lys(Me2)][Phe(4-Me)]D-{Toyopearl AF‑Amino‑650M resin} (Variant of HYFKFD on Toyopearl resin, used as a negative control; also called HYMetFMetK(Met)2FMetD-Toyopearl) [HYMetFMetKMet2FMetD] is above or exactly 80%.
A: Criterion not met
